targetSystem: T1, O2
T1 chain: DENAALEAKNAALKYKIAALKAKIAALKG
procedureText: two-hybrid library CCNG1;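 further: natural log of median RNA to DNA barcode read ratio; higher means stronger binding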
testReadout: interaction score

binder="DEIAALEAKIAALKYKNAALKAKNAALKG [O12]" reportedvalue=-2.46
binder="DENAALEAEIAALEYENAALEAKIAALKG [O14]" reportedvalue=-1.4
binder="DKNAALKAKIAALKYKNAALKAEIAALEG [O13]" reportedvalue=-2.42
binder="DKNAALKAENAALEYKIAALKAKIAALKG [O10]" reportedvalue=-0.272
binder="DEIAALEAENAALEYKIAALKAENAALEG [O15]" reportedvalue=-2.21
binder="DENAALEAKNAALKYKIAALKAKIAALKG [O2]" reportedvalue=-2.16
binder="DKIAALKAKNAALKYEIAALEAKNAALKG [O16]" reportedvalue=-2.29
binder="DKIAALKAEIAALEYENAALEAENAALEG [O11]" reportedvalue=-2.18
binder="DKNAALKAENAALEYEIAALEAEIAALEG [O1]" reportedvalue=1.45
